All figures here come from patent US11806344B2.

Experiment: Safety, tolerability and pharmacokinetics in healthy subjects, single dose (Example 7)
Assay type: in vivo, human
Conditions: human, plasma, oral, single dose 10 mg capsule, read-out: AUC0-24
measured_quantity: AUC(0-t) (ng·h/mL)

INSERT INTO results (molecule, quantitative_result) VALUES
  ('N#Cc1ccc(N2N=C3c4ccc(C(=O)N5CCC(O)CC5)nc4CC[C@@H]3[C@@H]2C2CCCC2)cc1Cl [Compound I]', 3080);

---

Assay: 13-week toxicity and pharmacokinetic study in SD rats with 4-week recovery (Example 5)
Type: in vivo
Conditions: male, SD, rat, in vivo, po, 9 mg/kg/day, male SD rats, 9 mg/kg/day intragastric, 13 weeks; read-out: AUC0-24 h
Description: Sample to test: Solid dispersion of Compound I (Compound I:PVPK30=1:8 (w/w)) Animals: SD Rats, SPF Level. Two hundred and twenty SD rats were used in the studies. Three groups, i.e., high dose group, intermediate dose group and low dose group, were administered with Compound I with following doses, 20 males and 20 females for each group. […]
measured_quantity: AUC(0-t) (ng·h/mL)

INSERT INTO assay_data (compound, measurement_unit, quantitative_result) VALUES
  ('N#Cc1ccc(N2N=C3c4ccc(C(=O)N5CCC(O)CC5)nc4CC[C@@H]3[C@@H]2C2CCCC2)cc1Cl [Compound I]', 'ng·h/mL', 16500);
